Measurement Description: amyloid nucleation score (Sup35N fusion, yeast selection) (log enrichment); library NNK3; higher = more nucleation; inactive = no reads after selection;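 also: zero at mode of non-aggregating sequences after 7 days selection at 30°C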
Attribute Measured: amyloid nucleation score

1) YLDLFLWIREMLYYTGSLRV = inactive
2) NLSTFQIYDR = inactive
3) SGMLIVLRSWLDRDSICEGR = inactive
4) ASDSCGG = inactive

* * *

Measurement Description: amyloid nucleation score (Sup35N fusion, yeast selection) (log enrichment); library NNK2; higher = more nucleation; inactive = no reads after selection
Decide using amyloid nucleation score: a value greater than or equal to 0.8 is yes, a smaller one is no.

Solved cases below.
1. AVASVETDGSKIYMMDVLNY = no
2. QLRVYEKFKWCQREWRMDRF = yes

Is the recorded value of amyloid nucleation score equal to or greater than 0.8 for this substance? ERPWRRQRCAFKVSWVGADL
no

Queued: VRALRQPAT
no

Queued: WQIGPCYNVLRFLKWFWSLR
no

Queued: QCYIVCFICSRYTNQVKLLY
yes

Queued: IVILDRFSPCSRTNE
no

Queued: HISVISTNEFTRIRASAAHA
yes

This collection of values is drawn from the supplement of paper PMC12042874.
